A collection of compounds and their measured rCYP % Inhibition 1A2
Biological target: rCYP 1A2 (Homo sapiens)
Sequence (P05177 whole entry): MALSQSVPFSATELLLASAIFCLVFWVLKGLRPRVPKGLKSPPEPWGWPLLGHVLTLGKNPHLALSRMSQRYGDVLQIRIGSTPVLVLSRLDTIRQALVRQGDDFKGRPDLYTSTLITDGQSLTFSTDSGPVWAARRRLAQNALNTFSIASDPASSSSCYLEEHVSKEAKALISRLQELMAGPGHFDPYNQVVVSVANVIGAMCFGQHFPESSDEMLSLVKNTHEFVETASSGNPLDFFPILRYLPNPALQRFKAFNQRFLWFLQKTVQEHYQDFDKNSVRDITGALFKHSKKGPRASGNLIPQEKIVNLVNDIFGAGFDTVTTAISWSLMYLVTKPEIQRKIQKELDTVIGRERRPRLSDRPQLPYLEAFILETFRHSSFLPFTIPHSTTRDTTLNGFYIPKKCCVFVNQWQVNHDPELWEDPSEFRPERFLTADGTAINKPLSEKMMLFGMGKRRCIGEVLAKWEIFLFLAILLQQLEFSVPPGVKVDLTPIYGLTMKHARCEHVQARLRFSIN
Assay: rCYP450 inhibition, 1A2
Format: in vitro ADME
Design: concentration or dose not given beside the values
Form entry: value (%) — number only.

In the examples that follow, each entry is paired with its recorded rCYP % Inhibition 1A2.
Request the reported rCYP % Inhibition 1A2 associated with `CC(=O)O[C@H](C)CCCCn1[nH]c(=O)n(-c2ccccc2)c1=O`
7

Request the reported rCYP % Inhibition 1A2 associated with `CC(=O)O[C@H](C)CCCCn1ccc2cc(Br)ccc21`
58

Request the reported rCYP % Inhibition 1A2 associated with `C[C@@H](O)CCCCn1[nH]c(=O)n(-c2ccccc2)c1=O`
5

Request the reported rCYP % Inhibition 1A2 associated with `C[C@@H]([O-])CCCCN1C(=O)COc2ccccc21.[Na+]`
12

--- query ---
Request the reported rCYP % Inhibition 1A2 associated with `C[C@@H](O)CCCCn1ccc2cc(Br)ccc21`
56

* * *

Biological target: rCYP 2C9 (Homo sapiens)
Sequence (P11712 whole entry): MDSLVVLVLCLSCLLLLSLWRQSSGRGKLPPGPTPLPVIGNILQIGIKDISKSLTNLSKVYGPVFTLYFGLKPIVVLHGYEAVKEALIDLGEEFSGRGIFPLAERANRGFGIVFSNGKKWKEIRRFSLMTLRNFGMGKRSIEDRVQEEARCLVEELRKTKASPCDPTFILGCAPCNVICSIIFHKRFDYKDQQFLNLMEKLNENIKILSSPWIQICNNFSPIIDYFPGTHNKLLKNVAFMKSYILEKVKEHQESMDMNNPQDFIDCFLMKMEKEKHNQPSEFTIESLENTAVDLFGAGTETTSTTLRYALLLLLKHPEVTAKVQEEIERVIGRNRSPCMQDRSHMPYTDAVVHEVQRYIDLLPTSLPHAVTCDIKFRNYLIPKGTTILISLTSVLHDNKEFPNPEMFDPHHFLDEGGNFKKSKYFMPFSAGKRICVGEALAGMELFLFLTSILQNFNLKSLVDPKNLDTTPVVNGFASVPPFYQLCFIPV
Assay: rCYP450 inhibition, 2C9
Format: in vitro ADME
Set-up: concentration or dose not given beside the values
Tick condition met if rCYP % Inhibition 2C9 is 30% or greater. Tick condition not met if rCYP % Inhibition 2C9 is less than 30%.

Examples from the recorded data:
For this molecule, is measured rCYP % Inhibition 2C9 30% or higher? C[C@@H](O)CCCCOc1nn(CCCC[C@@H](C)O)c(=O)c2ccccc12 [CPW13]
condition met

For this molecule, is measured rCYP % Inhibition 2C9 30% or higher? C[C@@H](O)CCCCn1ccc2cc(Br)ccc21 [CPW4]
condition met

For this molecule, is measured rCYP % Inhibition 2C9 30% or higher? CC(=O)O[C@H](C)CCCCn1[nH]c(=O)n(-c2ccccc2)c1=O [CPW8]
condition not met

Please find the next molecule below.
For this molecule, is measured rCYP % Inhibition 2C9 30% or higher? C[C@@H](O)CCCCN1c2ccccc2Oc2ccccc21 [CPW20]
condition met

* * *

Target: rCYP 2C19 (Homo sapiens, UniProt P33261)
Sequence (P33261 whole entry): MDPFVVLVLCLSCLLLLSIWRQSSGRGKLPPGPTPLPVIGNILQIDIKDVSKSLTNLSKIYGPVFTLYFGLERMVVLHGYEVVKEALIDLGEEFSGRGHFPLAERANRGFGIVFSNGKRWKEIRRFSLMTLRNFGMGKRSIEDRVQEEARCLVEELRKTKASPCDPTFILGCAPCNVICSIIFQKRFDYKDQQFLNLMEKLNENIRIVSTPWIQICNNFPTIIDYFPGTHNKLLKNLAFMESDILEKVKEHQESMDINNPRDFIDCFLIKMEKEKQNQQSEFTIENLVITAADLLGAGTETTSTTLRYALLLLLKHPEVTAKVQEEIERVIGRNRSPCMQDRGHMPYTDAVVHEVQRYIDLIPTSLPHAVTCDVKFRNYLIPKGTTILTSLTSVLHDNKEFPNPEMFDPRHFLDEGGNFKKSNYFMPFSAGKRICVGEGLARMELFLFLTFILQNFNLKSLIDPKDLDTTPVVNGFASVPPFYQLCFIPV
Experiment: rCYP450 inhibition, 2C19
Assay type: in vitro ADME
Parameters: concentration or dose not given beside the values
A collection of compounds and their measured rCYP % Inhibition 2C19
Provide a numeric answer, followed by its unit.

Request the reported rCYP % Inhibition 2C19 associated with `C[C@@H](O)CCCCn1[nH]c(=O)n(-c2ccccc2)c1=O`
1%

--- query ---
Request the reported rCYP % Inhibition 2C19 associated with `CC(=O)O[C@H](C)CCCCn1ccc2cc(Br)ccc21`
99%

* * *

Target: rCYP 3A4 (Homo sapiens, UniProt P08684)
Sequence (P08684 whole entry): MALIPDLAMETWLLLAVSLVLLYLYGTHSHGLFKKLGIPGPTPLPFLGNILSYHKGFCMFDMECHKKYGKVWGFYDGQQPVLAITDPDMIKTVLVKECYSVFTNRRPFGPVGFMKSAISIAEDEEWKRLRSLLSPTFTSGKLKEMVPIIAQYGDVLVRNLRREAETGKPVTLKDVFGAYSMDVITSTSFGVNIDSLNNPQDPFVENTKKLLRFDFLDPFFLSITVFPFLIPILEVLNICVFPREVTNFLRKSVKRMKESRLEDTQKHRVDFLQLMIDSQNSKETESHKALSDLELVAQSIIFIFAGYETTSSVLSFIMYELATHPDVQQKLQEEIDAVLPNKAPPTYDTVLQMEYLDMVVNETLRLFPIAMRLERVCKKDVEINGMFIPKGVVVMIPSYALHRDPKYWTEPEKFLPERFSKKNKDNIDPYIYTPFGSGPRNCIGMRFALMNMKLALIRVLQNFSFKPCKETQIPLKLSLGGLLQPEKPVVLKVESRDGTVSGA
Assay: rCYP450 inhibition, 3A4
Assay type: in vitro ADME
Parameters: concentration or dose not given beside the values
reported_property: rCYP % Inhibition 3A4 (%)
Form entry: value (%) — number only.

In the examples that follow, each entry is paired with its recorded rCYP % Inhibition 3A4.
Request the reported rCYP % Inhibition 3A4 associated with `C[C@@H](O)CCCCOc1n[nH]c(=O)c2ccccc12`
4

Request the reported rCYP % Inhibition 3A4 associated with `C[C@@H](O)CCCCn1ccc2cc(Br)ccc21`
32

Request the reported rCYP % Inhibition 3A4 associated with `C[C@@H](O)CCCCN1c2ccccc2Oc2ccccc21`
50

Request the reported rCYP % Inhibition 3A4 associated with `C[C@@H]([O-])CCCCN1C(=O)COc2ccccc21.[Na+]`
12

Request the reported rCYP % Inhibition 3A4 associated with CC(O)CCCCN1C(=O)C(C)N(CCCCC(C)O)C(=O)C1C (mixture of isomers)
14

Request the reported rCYP % Inhibition 3A4 associated with `CC(=O)O[C@H](C)CCCCn1[nH]c(=O)n(-c2ccccc2)c1=O`
12

Request the reported rCYP % Inhibition 3A4 associated with `C[C@@H](O)CCCCOc1nn(CCCC[C@@H](C)O)c(=O)c2ccccc12`
−159

Request the reported rCYP % Inhibition 3A4 associated with `CC(=O)O[C@H](C)CCCCn1ccc2cc(Br)ccc21`
57

Next:
Request the reported rCYP % Inhibition 3A4 associated with `C[C@@H](O)CCCCn1[nH]c(=O)n(-c2ccccc2)c1=O`
−4
